# experiment: Therapeutic index, ratio of TC50 for human CEM-SS cells to EC50 for HIV1 RF infected in human CEM-SS cells
# Format: cell-based
# measurementSetup: read-out: TI
Quick list: selectivity ratio per entry.
Response field accepts a number only; no unit should be typed.

{"molecule": "CCc1c(Sc2cc(C)cc(C)c2)n(CCC2CCCC2)c(=O)[nH]c1=O", "quantitativeResult": 154}
{"molecule": "Cc1cc(C)cc(Sc2c(C(C)C)c(=O)[nH]c(=O)n2CCC2CC=CC2)c1", "quantitativeResult": 6530}
{"molecule": "CCc1c(Sc2cc(C)cc(C)c2)n(CCC2C=CCC2)c(=O)[nH]c1=O (stereo not drawn)", "quantitativeResult": 641}
{"molecule": "CC(C)c1c(C(=O)c2ccccc2)n(CC2CC=CC2)c(=O)[nH]c1=O", "quantitativeResult": 200000}
{"molecule": "Cc1cc(C)cc(C(=O)c2c(C(C)C)c(=O)[nH]c(=O)n2CC2CC=CC2)c1", "quantitativeResult": 491000}
{"molecule": "Cc1cc(C)cc(Oc2c(C(C)C)c(=O)[nH]c(=O)n2CC2CCCCC2)c1", "quantitativeResult": 11400}
{"molecule": "Cc1cc(C)cc(C(=O)c2c(C(C)C)c(=O)[nH]c(=O)n2CC2CCC2)c1", "quantitativeResult": 2870}
{"molecule": "CCc1c(C(=O)c2cc(C)cc(C)c2)n(CC2=CCCC2)c(=O)[nH]c1=O", "quantitativeResult": 23700}

For "Cc1cc(C)cc(Oc2c(C(C)C)c(=O)[nH]c(=O)n2CC2CCC2)c1" , write its selectivity ratio.
32200

Identify selectivity ratio associated with the molecule "CCc1c(Sc2cc(C)cc(C)c2)n(CC2CCCC2)c(=O)[nH]c1=O"
3980

Indicate the recorded selectivity ratio value for this molecule: "CCc1c(Oc2cc(C)cc(C)c2)n(CC2CCCC2)c(=O)[nH]c1=O"
1450

Using the record for "Cc1cc(C)cc(Sc2c(C(C)C)c(=O)[nH]c(=O)n2CC2CC=CC2)c1" , state its measured selectivity ratio.
22

Give selectivity ratio for the following molecule: "CCc1c(Oc2cc(C)cc(C)c2)n(CC2CC2)c(=O)[nH]c1=O"
215000

Return selectivity ratio (reported value) for this molecule: "Cc1cc(C)cc(Oc2c(C(C)C)c(=O)[nH]c(=O)n2Cc2ccccc2)c1"
2720

Please look at this molecule and report its selectivity ratio: "Cc1cc(C)cc(Sc2c(C(C)C)c(=O)[nH]c(=O)n2CC2CC2)c1"
37600

Write down selectivity ratio measured for item "CCc1c(Sc2cc(C)cc(C)c2)n(CC2CC2)c(=O)[nH]c1=O"
25500

Answer with the recorded selectivity ratio of "Cc1cc(C)cc(Oc2c(C(C)C)c(=O)[nH]c(=O)n2CCC2CCCC2)c1" only.
145

Supply selectivity ratio value. Item: "CCc1c(Sc2ccccc2)n(CC2CC=CC2)c(=O)[nH]c1=O"
262

Give recorded selectivity ratio. "Cc1cc(C)cc(C(=O)c2cc(=O)[nH]c(=O)n2CC2CC=CC2)c1"
40

Note selectivity ratio for the molecule shown: "Cc1cc(C)cc(Oc2c(C(C)C)c(=O)[nH]c(=O)n2CC2=CCCC2)c1"
23500

Give the reported selectivity ratio for this molecule. "Cc1cc(C)cc(Sc2c(C(C)C)c(=O)[nH]c(=O)n2CC2CCC2)c1"
9290

Determine its reported selectivity ratio: "CCc1c(C(=O)c2cc(C)cc(C)c2)n(CCC2CC=CC2)c(=O)[nH]c1=O"
5660

Fill in reported selectivity ratio for this entry: "CC(C)c1c(Oc2ccccc2)n(CC2CC=CC2)c(=O)[nH]c1=O"
55200
